tested on: mammalian cells; assay: Arrayed SSAP library screening, cell viability by live cell counts via flow cytometry; type: cell-based
What Cell Viability (Average, two targets) was measured for each of the following?

SSAP_193: SEQ ID NO: 362; Mesotoga sp. TolDC (protein, listed as Mesotoga sp.) KASEIASMVKKEDERRNHKPDPLAGIVKNLTSIKGEIANALPDAGITPERMIRIVVTLLRQNKSLAEAAMQNPASLLGAVMMAAQLGLDPTNGLDQCALVPRKGKVCFDIMYEGLVELGYRSDRMESIVARTVYEKDTFSLKYGLNEELVHIPYLDGDPGESKGYYMVGKLKGGGNIIVYMTKEQVHKIRDRYSVAYKAGLSGSRKDSPWFTSEDRMGEKTVVKAGFRWIPKSPIIRTALALDETAREASRLPMRN ... 1.147

Switching to the query record.
Consider the molecule shown here: SSAP_152: SEQ ID NO: 321; Clostridiaceae bacterium (protein, listed as Clostridiaceae bacterium) SNLKKALKTNETKGNSVTVSKAYAMKQLMIKMKGEITSALPTNLSSERFEKVALTAFNSNPKLQKCDPRTFIAAMMQSAQLGLEPNTALGLAYLIPYEVKGINKVQFQIGYKGLLELANRSGKLKTLYAHEVRENDEFDIDYGLEQKLIHKPLLKGNRGNVIGYYAVYHLEPSGYNFVFMTYDEVLEHGKKYSKSFEGGVWEKEFDSMAKKTVIKKLLKYAPLSIEMQKAIVFDESVKGSIDSDMLLVDKEDESIEGSELN What is its recorded Cell Viability (Average, two targets)?
1.159
